Tested on: HaCat
ASSAY_NOTES: Cytotoxic Profiling of Annotated Libraries Using Quantitative High-Throughput Screening (AID 1296008); note: % is set by controls: 0 for no effect and ±100 for the full control effect; nearly all actives have a fitted effect of over 60% in size
EXPERIMENTAL_CONTEXT: Five cell lines viability, CellTiter-Glo ATP luminescence, 48-72 h; stronger effect = lower value
Inconclusive results are not listed.
Measured max response values are reported for all entries that follow.
Your answer should be a plain number; it is taken to be in %.

MOLECULE	max response (%)
CN1CCC(=C2c3ccccc3CC(=O)c3sccc32)CC1	0.22
CS(=O)(=O)Nc1ccc([N+](=O)[O-])cc1Oc1ccccc1	1.46

Exam item: Which max response value belongs to "Clc1ccc2nsnc2c1NC1=NCCN1" ?
Marked response: 2.64

---

ASSAY_NOTES: Quantitative High-Throughput drug screen in 47 multiple myeloma cell lines against the NCATS MIPE library collection: OPM1_PLB cell viability assay (AID 1918989); note: nearly all actives have a fitted effect of over 40% in size
EXPERIMENTAL_CONTEXT: CellTiter-Glo, 48 h; series mostly up to 45.8 µM
Records with an inconclusive call do not appear. The source made the active and inactive calls. Calls come from the whole dose curve; as a rule, active = well fitted cell-killing curve with a large enough effect; inconclusive = small, poorly fitted or top-dose-only effect, or effect the other way; inactive = no such curve, though single readings can be large or run the other way.
Hi! Could you answer with just one of these? yes (1) for active, no (0) for inactive

MOLECULE	CLASS_ASSIGNMENT
CN(CCOc1ccc(NS(C)(=O)=O)cc1)CCc1ccc(NS(C)(=O)=O)cc1	no (0)
CN(C)CCCN1c2ccccc2CCc2ccc(Cl)cc21	yes (1)
CCOC(=O)Nc1ccc(NCc2ccc(F)cc2)nc1N	no (0)

Exam item: Assay outcome for "Clc1ccc2c(c1)C(N1CCNCC1)=Nc1ccccc1O2" : what was it?
Marked response: yes (1)

Exam item: Now the molecule Cc1ccccc1N1C(=O)c2cc(S(N)(=O)=O)c(Cl)cc2NC1C (centres undefined)
Marked response: no (0)

Exam item: Now the molecule "OCCN1CCN(CCCN2c3ccccc3Sc3ccc(C(F)(F)F)cc32)CC1"
Marked response: yes (1)

Exam item: Now the molecule "CN1CCC(=C2c3ccccc3CC(=O)c3sccc32)CC1"
Marked response: yes (1)

Exam item: Now the molecule "O=C1c2c(O)ccc(O)c2C(=O)c2c(NCCNCCO)ccc(NCCNCCO)c21"
Marked response: yes (1)

Exam item: Now the molecule CC1(CN2CCC(n3c(=O)[nH]c4ccccc43)CC2)OCc2ccccc2-n2cccc21 (centres undefined)
Marked response: yes (1)

---

ASSAY_NOTES: qHTS of pediatric cancer cell lines to identify multiple opportunities for drug repurposing: Primary screen for LAN-5 cells (AID 1347100); note: potency is the fitted concentration of half-maximal effect
EXPERIMENTAL_CONTEXT: LAN-5 neuroblastoma viability, CellTiter-Glo luminescence, 48 h; series mostly up to 46 µM
Inconclusive results are not listed. Calls of active or inactive are those of the source. Calls come from the whole dose curve; as a rule, active = well fitted cell-killing curve with a large enough effect; inconclusive = small, poorly fitted or top-dose-only effect; inactive = no such curve, though single readings can be large or run the other way.
TEST_READOUT: Potency

MOLECULE	TEST_READOUT	READOUT_VALUE
CN1CCN(CCCN2c3ccccc3Sc3ccc(Cl)cc32)CC1	Potency	9.35 µM (active)
N[C@@H](Cc1c[nH]c2ccc(O)cc12)C(=O)O	Potency	inactive
COc1cc2nc(N3CCN(C(=O)C4COc5ccccc5O4)CC3)nc(N)c2cc1OC (stereo unspecified)	Potency	inactive
CC[N+](CC)(CC)CCOc1cccc(OCC[N+](CC)(CC)CC)c1OCC[N+](CC)(CC)CC	Potency	inactive
CCCCc1oc2ccccc2c1C(=O)c1cc(I)c(OCCN(CC)CC)c(I)c1	Potency	1.48 µM (active)
O=C1N(c2ccccc2)c2ccccc2C1(Cc1ccncc1)Cc1ccncc1	Potency	inactive

Exam item: Which Potency value belongs to COc1ccccc1OCC(O)CN1CCN(CC(=O)Nc2c(C)cccc2C)CC1 (stereo unspecified) ?
Marked response: inactive

Exam item: Now the molecule "O=C(c1ccc(F)cc1)C1CCN(CCn2c(=O)[nH]c3ccccc3c2=O)CC1"
Marked response: inactive

---

System: ICS
ASSAY_NOTES: qHTS profiling for inhibitors of Plasmodium falciparum proliferation (AID 504749); note: nearly all actives have a fitted effect of over 60% in size; note: potency is the fitted concentration of half-maximal effect
EXPERIMENTAL_CONTEXT: P. falciparum in erythrocytes, SYBR Green DNA, 72 h; series mostly up to 28.7 µM
Inconclusive results are not listed. Calls of active or inactive are those of the source. Calls follow the shape of the dose curve; as a rule, active = well fitted inhibition curve with a large enough effect; inconclusive = small, poorly fitted or top-dose-only effect; inactive = flat fitted curve, though single readings scatter.
TEST_READOUT: Potency

COMPOUND	TESTED_TARGET	READOUT_VALUE
CC(COc1ccccc1)N(CCCl)Cc1ccccc1 (stereo not drawn)	ICS	11.2 µM (active)
CC(C)Cc1ccc(C(C)C(=O)O)cc1 (stereo not drawn)	ICS	inactive
NC(=O)NO	ICS	inactive

---

Measured z-score values are reported for all entries that follow.
ASSAY_NOTES: qHTS for identification of novel therapeutic agents for treatment of microphthalmiaassociated transcription factor (MiT) renal cell carcinoma (RCC) (AID 1963991);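 note: curves scaled with 100% = DMSO viability and 0% = empty wells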
EXPERIMENTAL_CONTEXT: TFE3-RCC UOK109 viability, CellTiter-Glo, 48 h; measured here: UOK109 Z-AUC; stronger effect = lower value
Inconclusive results are not listed.
Write the number on its own, no unit after it.

COMPOUND	z-score
CCc1cccc2c3c([nH]c12)C(CC)(CC(=O)O)OCC3 (stereo not given)	0.838
Cn1c(=O)c2c(ncn2C)n(C)c1=O	0.696
NCCc1cnc[nH]1	-0.102
COc1ccc(CCN(C)CCCC(C#N)(c2ccc(OC)c(OC)c2)C(C)C)cc1OC (stereo not given)	0.794

Continue with the compound presented below.
Exam item: Which z-score value belongs to O=C(C1CCCCC1)N1CC(=O)N2CCc3ccccc3C2C1 (stereo not given) ?
Marked response: -4.91

---

TESTED_TARGET: Cytochrome P450 2D6 (Homo sapiens)
ASSAY_NOTES: Cytochrome P450 family 2 subfamily D member 6 (CYP2D6) small molecule antagonists: luciferase biochemical (cell-free) qHTS assay (AID 1645840); note: nearly all actives have a fitted effect of over 55% in size
EXPERIMENTAL_CONTEXT: P450-Glo CYP2D6 enzyme, luciferin luminescence, 1 h; series mostly up to 57.4 µM
Inconclusive results are not listed. Calls of active or inactive are those of the source. The call rests on the fitted dose curve; in most records, active means well fitted inhibition curve with a large enough effect in the repeat runs; inconclusive means weak or mixed curves; inactive means flat fitted curve, though single readings scatter.
Hi! Could you answer with just one of these? active, inactive

Use these answered entries as a reference point.
COMPOUND	TESTED_TARGET	CLASS_ASSIGNMENT
CS(=O)(=O)Nc1ccc([N+](=O)[O-])cc1Oc1ccccc1	Cytochrome P450 2D6 (Homo sapiens)	inactive
Cc1cn([C@H]2C=C[C@@H](CO)O2)c(=O)[nH]c1=O	Cytochrome P450 2D6 (Homo sapiens)	inactive
Cc1cc(C(C)(C)C)cc(C)c1CC1=NCCN1	Cytochrome P450 2D6 (Homo sapiens)	active
CCC1(C)CC(=O)NC1=O (stereo unspecified)	Cytochrome P450 2D6 (Homo sapiens)	inactive

Shifting focus to the compound that follows.
Exam item: Assay outcome for "CC[N+](CC)(CC)CCOc1cccc(OCC[N+](CC)(CC)CC)c1OCC[N+](CC)(CC)CC" : what was it?
Marked response: inactive

---

ASSAY_NOTES: Quantitative High-Throughput drug screen in 47 multiple myeloma cell lines against the NCATS MIPE library collection: RPMI8226_ATCC cell viability assay (AID 1919871); note: nearly all actives have a fitted effect of over 30% in size; note: potency is the fitted concentration of half-maximal effect
EXPERIMENTAL_CONTEXT: RPMI8226 myeloma viability, CellTiter-Glo ATP luminescence, 48 h; series mostly up to 45.8 µM
Records with an inconclusive call do not appear. The source made the active and inactive calls. Calls come from the whole dose curve; as a rule, active = well fitted cell-killing curve with a large enough effect; inconclusive = small, poorly fitted or top-dose-only effect, or effect the other way; inactive = no such curve, though single readings can be large or run the other way.
TEST_READOUT: Potency

Worked examples, 5 compounds total:
COMPOUND	READOUT_VALUE
CCOC(=O)C(C)(C)Oc1ccc(Cl)cc1	inactive
NS(=O)(=O)c1cc2c(cc1Cl)NCNS2(=O)=O	inactive
CN1CCC(=C2c3ccccc3CC(=O)c3sccc32)CC1	inactive
OCCN1CCN(CCCN2c3ccccc3Sc3ccc(C(F)(F)F)cc32)CC1	16.6 µM (active)
CN(C)CCOC(c1ccccc1)c1ccccc1	inactive

Exam item: Which Potency value belongs to "Clc1ccccc1C(c1ccccc1)(c1ccccc1)n1ccnc1" ?
Marked response: 14.8 µM (active)

Exam item: Now the compound CC(COc1ccccc1)N(CCCl)Cc1ccccc1 (stereo not given)
Marked response: inactive

Exam item: Now the compound "O=C1N(c2ccccc2)c2ccccc2C1(Cc1ccncc1)Cc1ccncc1"
Marked response: inactive

---

Measured Potency values are reported for all entries that follow.
ASSAY_NOTES: Quantitative High-Throughput drug screen in 47 multiple myeloma cell lines against the NCATS MIPE library collection: MM1S_ATCC cell viability assay (AID 1918980); note: potency is the fitted concentration of half-maximal effect; nearly all actives have a fitted effect of over 45% in size
EXPERIMENTAL_CONTEXT: MM1S myeloma viability, CellTiter-Glo ATP luminescence, 48 h; series mostly up to 45.8 µM
Records with an inconclusive call do not appear. Calls of active or inactive are those of the source. Calls follow the shape of the dose curve; as a rule, active = well fitted cell-killing curve with a large enough effect; inconclusive = small, poorly fitted or top-dose-only effect, or effect the other way; inactive = no such curve, though single readings can be large or run the other way.

COMPOUND_SMILES	Potency
O=C1c2c(O)ccc(O)c2C(=O)c2c(NCCNCCO)ccc(NCCNCCO)c21	46.9 nM (active)
CC(C)C(=O)Nc1ccc([N+](=O)[O-])c(C(F)(F)F)c1	1660 nM (active)
CS(=O)(=O)CCNCc1ccc(-c2ccc3ncnc(Nc4ccc(OCc5cccc(F)c5)c(Cl)c4)c3c2)o1	166 nM (active)

Exam item: Which Potency value belongs to "CN(C)CCCN1c2ccccc2CCc2ccc(Cl)cc21" ?
Marked response: 743 nM (active)

Exam item: Now the compound "CC[C@@]1(O)C(=O)OCc2c1cc1n(c2=O)Cc2cc3c(CN(C)C)c(O)ccc3nc2-1"
Marked response: 166 nM (active)

Exam item: Now the compound "CNCCCC12CCC(c3ccccc31)c1ccccc12"
Marked response: 16600 nM (active)

Exam item: Now the compound "CCOC(=O)c1ncn2c1CN(C)C(=O)c1cc(F)ccc1-2"
Marked response: 18700 nM (active)

Exam item: Now the compound "COc1ccc2c(c1)c(CC(=O)O)c(C)n2C(=O)c1ccc(Cl)cc1"
Marked response: 18700 nM (active)
